For each of the binders below, state its Kd.
# systemName: T1, EsCas13d, nuclease-dead (Eubacterium siraeum, UniProt B0MS50, R295A;H300A;R849A;H854A)
# T1 sequence: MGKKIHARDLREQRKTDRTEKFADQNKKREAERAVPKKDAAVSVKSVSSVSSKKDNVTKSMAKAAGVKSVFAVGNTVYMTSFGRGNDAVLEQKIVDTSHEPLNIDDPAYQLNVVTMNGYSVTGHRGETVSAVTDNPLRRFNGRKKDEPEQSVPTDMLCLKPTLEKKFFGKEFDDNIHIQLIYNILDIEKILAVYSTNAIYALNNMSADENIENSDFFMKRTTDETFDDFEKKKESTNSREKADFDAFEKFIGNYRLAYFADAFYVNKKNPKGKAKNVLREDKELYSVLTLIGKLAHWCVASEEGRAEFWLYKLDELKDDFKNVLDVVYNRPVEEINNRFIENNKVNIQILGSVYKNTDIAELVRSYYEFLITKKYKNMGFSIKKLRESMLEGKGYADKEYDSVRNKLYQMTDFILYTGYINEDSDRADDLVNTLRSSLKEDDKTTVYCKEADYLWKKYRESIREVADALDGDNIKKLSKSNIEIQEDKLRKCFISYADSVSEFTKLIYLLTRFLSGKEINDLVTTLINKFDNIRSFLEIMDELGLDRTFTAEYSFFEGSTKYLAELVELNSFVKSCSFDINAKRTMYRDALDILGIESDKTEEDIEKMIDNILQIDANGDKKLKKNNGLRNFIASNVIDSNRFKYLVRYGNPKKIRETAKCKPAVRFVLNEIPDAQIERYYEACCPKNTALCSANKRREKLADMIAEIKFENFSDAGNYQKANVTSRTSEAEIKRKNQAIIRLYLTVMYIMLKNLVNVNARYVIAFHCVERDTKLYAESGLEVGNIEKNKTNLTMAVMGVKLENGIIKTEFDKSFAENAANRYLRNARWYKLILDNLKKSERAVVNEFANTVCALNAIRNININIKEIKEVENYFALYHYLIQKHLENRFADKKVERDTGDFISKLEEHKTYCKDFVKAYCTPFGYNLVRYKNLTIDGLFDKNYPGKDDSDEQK
# protocolNotes: crRNA (strand 1, pre-loaded); Mg2+; 40 mM Tris-HCl pH 7.5, 150 mM NaCl, 6 mM MgCl2, 1 mM DTT, 0.1% Tween-20, 0.2 mg/ml BSA; 25 C; 10 min per concentration, then washed
# conditionLabel: tags: His6-TwinStrep-SUMO cleaved; N-terminal SNAP kept (SNAP-Surface 488); label: 3' end held by stalled T7 RNA polymerase
Quick note: give the figure in nM, leave out the unit.

Can you look up the measured Kd of target 1 MT 5'PFS GGG 3'PFS AUA (mixed) RNA 1: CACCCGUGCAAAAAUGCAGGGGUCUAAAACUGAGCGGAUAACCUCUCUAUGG RNA 2: GGGAAUGGAUCCACAUCUACGAAUUCGGGCCAUAGAGAGGUUAUCCGCUCAAUAAGAUCGGAAGAGCACACGU for me?
32

# Kd lookup, item target 1 insU 3' of 4,insC 3' of 1 (mixed) RNA 1: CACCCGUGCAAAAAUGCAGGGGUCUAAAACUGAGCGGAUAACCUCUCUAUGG RNA 2: GGGAAUGGAUCCACAUCUACGAAUUCGUACCAUAGAGAGGUUAUCCGCUUCACCCGAGAUCGGAAGAGCACACGU
16.8

Source: paper PMC10786891
